Target: T1, corticotropin-releasing hormone (CRH) peptide (human and mouse, UniProt P01143 145-185 (rat entry), not fully specified)
T1 peptide: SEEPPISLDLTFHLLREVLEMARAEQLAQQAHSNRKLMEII
Test: cell-based or functional assay
Hi there, I'd appreciate the recorded unlabelled nM value (Table 5 matrix; likely hCRHR1-Luc IC50 as in Tables 6-8) for every entry that follows.
Give bare numbers, in nM.

Field: example entries. Status: answers known.
{"columns": ["binder", "meas-value"],
 "data": [
  ["PR302064 (antibody, human IgG1, kappa, V domains shown) VH: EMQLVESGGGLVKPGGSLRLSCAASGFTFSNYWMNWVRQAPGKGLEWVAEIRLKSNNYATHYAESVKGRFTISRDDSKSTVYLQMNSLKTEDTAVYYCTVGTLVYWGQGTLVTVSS VL: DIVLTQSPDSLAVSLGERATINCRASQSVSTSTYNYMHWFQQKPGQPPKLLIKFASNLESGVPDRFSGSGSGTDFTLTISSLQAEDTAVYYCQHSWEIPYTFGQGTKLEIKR", 0.531],
  ["PR302036 (antibody, human IgG1, kappa, V domains shown) VH: EMQLVESGGGLVQPGGSLRLSCAASGFTFSNYWMNWVRQAPGKGLEWVAEIRLKSNNYATHYAESVKGRFTISRDDSKSSVYLQMNSLKTEDTAVYYCTVGTLVYWGQGTLVTVSS VL: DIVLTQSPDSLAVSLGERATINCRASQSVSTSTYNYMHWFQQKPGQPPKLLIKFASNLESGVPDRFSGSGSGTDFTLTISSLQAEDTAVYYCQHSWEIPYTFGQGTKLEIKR", 1.4]
]}

Prompt: unlabelled nM value (Table 5 matrix; likely hCRHR1-Luc IC50 as in Tables 6-8) lookup needed for PR301777 (antibody, human IgG1, kappa, V domains shown) VH: EMKLEESGGGLVQPGGSMKLSCVASGFTFSNYWMNWVRQSPEKGLEWVAEIRLKSNNYATHYAESVKGRFTISRDDSKSGVYLQMNNLGAEDTGIYYCTVGTLVYWGQGTLVTVSA VL: DIVLTQSPASLAVSLGQRATISCRASQSVSTSTYNYMHWFQQKPGQPPKLLIKFASNLESGVPARFSGSGSGTDFTLNIHPVEEEDTATFYCQHSWEIPYTFGGGTKLEIKR , thanks.
Response: 0.674
